Measured Ki by item
# SYSTEM: T1, Active MMP-9 enzyme (UniProt P14780 107-707, limits assumed)
# T1 construct: mature; also called matrix metalloproteinase-9; mature MMP-9
# T1 sequence (P14780 107-707 limits assumed): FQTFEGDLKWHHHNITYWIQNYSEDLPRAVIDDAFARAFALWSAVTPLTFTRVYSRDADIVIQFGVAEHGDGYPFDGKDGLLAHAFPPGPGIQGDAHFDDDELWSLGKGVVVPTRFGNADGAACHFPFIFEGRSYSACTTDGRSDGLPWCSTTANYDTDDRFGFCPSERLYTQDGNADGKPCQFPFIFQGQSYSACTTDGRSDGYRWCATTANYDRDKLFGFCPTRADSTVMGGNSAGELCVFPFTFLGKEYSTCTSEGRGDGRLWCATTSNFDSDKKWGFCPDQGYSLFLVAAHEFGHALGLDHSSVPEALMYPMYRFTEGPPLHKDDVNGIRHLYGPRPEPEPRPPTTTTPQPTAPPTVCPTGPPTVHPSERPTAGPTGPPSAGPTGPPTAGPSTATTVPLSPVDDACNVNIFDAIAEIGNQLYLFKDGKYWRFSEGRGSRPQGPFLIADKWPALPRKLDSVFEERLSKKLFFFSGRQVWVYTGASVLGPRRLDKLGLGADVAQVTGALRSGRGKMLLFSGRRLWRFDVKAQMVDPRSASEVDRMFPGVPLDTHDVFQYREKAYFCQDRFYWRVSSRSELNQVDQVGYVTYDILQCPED
# EXPERIMENTAL PROTOCOL: enzyme inhibition, fluoresceinated collagen substrate, Dixon plot
Field format: number, assumed µM, no unit text.

Check out these entries, answers already filled in.
PRCGNPDVA [9-mer (SEQ ID NO:12) PRCGNPDVA] ... 186
H-PRCGNPDVANYNFFPRKPK-OH (Synthesized by Sigma-Genosys, >95% pure by RP-HPLC; Free termini; the acetylated/amidated Ac-19-mer was used only in migration assays; also called 19mer peptide) [19-mer (SEQ ID NO:11) PRCGNPDVANYNFFPRKPK] ... 30.3

Ask | Given the binder NYNFFPRKPK [10-mer (SEQ ID NO:13) NYNFFPRKPK] , what is its reported Ki?
Reply | 221
